Each recorded value in this set is attributed to patent US12649778.

- target_of_assay: Peptide 1593 (…) (Mycobacterium tuberculosis)
- assay_overview: indirect ELISA, supernatant on 1 ug/ml coated peptide
assay_readout: OD450, supernatant undiluted (OD450)
Write the value in OD450 as a bare number.

// Antibody 125D9-1 (antibody, V domains shown) VH: QPVEESGGRLVTPGTPLTLTCTVSGFSLSSYDMTWVRQAPGKGLEYIGVVAYGGATYYASWAKGRFTISKTSTTVDLKITSPTTEDTATYFCARGDSDGSSELFNLWGQGTLVTVSS VL: AVLTQTPSPVSAAVGGTVTINCQSSKSVYNNNCLSWYQQKQGQPPKLLIYQASTPASGVPSRFKGSGSGTQFTLTINDVQCDDAATYYCAGCFASTSDMYGFGGGTGVVVK : OD450, supernatant undiluted value = 3.2
